Value source: patent US20240400708A1

studySystem: Feline FcRn complex (FcRn-alpha subunit and beta-microglobulin) (feline)
measurementNotes: SPR (Biacore), feline FcRn captured on SA chip, IgG flowed over, pH 6
Listed below: Kd values for each entry.

>  <binder>
feline IgG1a Fc mutant Q311H, S428M (antibody, part only; not given: Variable domains, not shown: another chain or arm of the molecule; small tags and cut ends) constant: ASTTAPSVFPLAPSCGTTSGATVALACLVLGYFPEPVTVSWNSGALTSGVHTFPAVLQASGLYSLSSMVTVPSSRWLSDTFTCNVAHPPSNTKVDKTVRKTDHPPGPKPCDCPKCPPPEMLGGPSIFIFPPKPKDTLSISRTPEVTCLVVDLGPDDSDVQITWFVDNTQVYTAKTSPREEQFNSTYRVVSVLPILHHDWLKGKEFKCKVNSKSLPSPIERTISKAKGQPHEPQVYVLPPAQEELSRNKVSVTCLIKSFHPPDIAVEWEITGQPEPENNYRTTPPQLDSDGTYFVYSKLSVDRSHWQRGNTYTCSVMHEALHSHHTQKSLTQSPGK

>  <u>
nM

>  <Kd>
6.58

$$$$
>  <binder>
feline IgG1a Fc mutant Q311W, S428Y (antibody, part only; not given: Variable domains, not shown: another chain or arm of the molecule) constant: ASTTAPSVFPLAPSCGTTSGATVALACLVLGYFPEPVTVSWNSGALTSGVHTFPAVLQASGLYSLSSMVTVPSSRWLSDTFTCNVAHPPSNTKVDKTVRKTDHPPGPKPCDCPKCPPPEMLGGPSIFIFPPKPKDTLSISRTPEVTCLVVDLGPDDSDVQITWFVDNTQVYTAKTSPREEQFNSTYRVVSVLPILHWDWLKGKEFKCKVNSKSLPSPIERTISKAKGQPHEPQVYVLPPAQEELSRNKVSVTCLIKSFHPPDIAVEWEITGQPEPENNYRTTPPQLDSDGTYFVYSKLSVDRSHWQRGNTYTCSVYHEALHSHHTQKSLTQSPGK

>  <u>
nM

>  <Kd>
6.35

$$$$
>  <binder>
feline IgG1a Fc mutant S428L, S434F (antibody, part only; not given: Variable domains, not shown: another chain or arm of the molecule; small tags and cut ends) constant: ASTTAPSVFPLAPSCGTTSGATVALACLVLGYFPEPVTVSWNSGALTSGVHTFPAVLQASGLYSLSSMVTVPSSRWLSDTFTCNVAHPPSNTKVDKTVRKTDHPPGPKPCDCPKCPPPEMLGGPSIFIFPPKPKDTLSISRTPEVTCLVVDLGPDDSDVQITWFVDNTQVYTAKTSPREEQFNSTYRVVSVLPILHQDWLKGKEFKCKVNSKSLPSPIERTISKAKGQPHEPQVYVLPPAQEELSRNKVSVTCLIKSFHPPDIAVEWEITGQPEPENNYRTTPPQLDSDGTYFVYSKLSVDRSHWQRGNTYTCSVLHEALHFHHTQKSLTQSPGK

>  <u>
nM

>  <Kd>
1.39

$$$$
>  <binder>
feline IgG1a Fc mutant Q311K, S428M (antibody, part only; not given: Variable domains, not shown: another chain or arm of the molecule; small tags and cut ends) constant: ASTTAPSVFPLAPSCGTTSGATVALACLVLGYFPEPVTVSWNSGALTSGVHTFPAVLQASGLYSLSSMVTVPSSRWLSDTFTCNVAHPPSNTKVDKTVRKTDHPPGPKPCDCPKCPPPEMLGGPSIFIFPPKPKDTLSISRTPEVTCLVVDLGPDDSDVQITWFVDNTQVYTAKTSPREEQFNSTYRVVSVLPILHKDWLKGKEFKCKVNSKSLPSPIERTISKAKGQPHEPQVYVLPPAQEELSRNKVSVTCLIKSFHPPDIAVEWEITGQPEPENNYRTTPPQLDSDGTYFVYSKLSVDRSHWQRGNTYTCSVMHEALHSHHTQKSLTQSPGK

>  <u>
nM

>  <Kd>
6.16

$$$$
>  <binder>
feline IgG1a Fc mutant S428L, S434H (antibody, part only; not given: Variable domains, not shown: another chain or arm of the molecule; small tags and cut ends) constant: ASTTAPSVFPLAPSCGTTSGATVALACLVLGYFPEPVTVSWNSGALTSGVHTFPAVLQASGLYSLSSMVTVPSSRWLSDTFTCNVAHPPSNTKVDKTVRKTDHPPGPKPCDCPKCPPPEMLGGPSIFIFPPKPKDTLSISRTPEVTCLVVDLGPDDSDVQITWFVDNTQVYTAKTSPREEQFNSTYRVVSVLPILHQDWLKGKEFKCKVNSKSLPSPIERTISKAKGQPHEPQVYVLPPAQEELSRNKVSVTCLIKSFHPPDIAVEWEITGQPEPENNYRTTPPQLDSDGTYFVYSKLSVDRSHWQRGNTYTCSVLHEALHHHHTQKSLTQSPGK

>  <u>
nM

>  <Kd>
2.58

$$$$
>  <binder>
feline IgG1a Fc mutant S428L, S434R (antibody, part only; not given: variable domains and light chain, not shown: another chain or arm of the molecule; small tags and cut ends) constant: ASTTAPSVFPLAPSCGTTSGATVALACLVLGYFPEPVTVSWNSGALTSGVHTFPAVLQASGLYSLSSMVTVPSSRWLSDTFTCNVAHPPSNTKVDKTVRKTDHPPGPKPCDCPKCPPPEMLGGPSIFIFPPKPKDTLSISRTPEVTCLVVDLGPDDSDVQITWFVDNTQVYTAKTSPREEQFNSTYRVVSVLPILHQDWLKGKEFKCKVNSKSLPSPIERTISKAKGQPHEPQVYVLPPAQEELSRNKVSVTCLIKSFHPPDIAVEWEITGQPEPENNYRTTPPQLDSDGTYFVYSKLSVDRSHWQRGNTYTCSVLHEALHRHHTQKSLTQSPGK

>  <u>
nM

>  <Kd>
4.66

$$$$
>  <binder>
feline IgG1a Fc mutant S428M, S252W (antibody, part only; not given: variable domains and light chain, not shown: another chain or arm of the molecule; small tags and cut ends) constant: ASTTAPSVFPLAPSCGTTSGATVALACLVLGYFPEPVTVSWNSGALTSGVHTFPAVLQASGLYSLSSMVTVPSSRWLSDTFTCNVAHPPSNTKVDKTVRKTDHPPGPKPCDCPKCPPPEMLGGPSIFIFPPKPKDTLWISRTPEVTCLVVDLGPDDSDVQITWFVDNTQVYTAKTSPREEQFNSTYRVVSVLPILHQDWLKGKEFKCKVNSKSLPSPIERTISKAKGQPHEPQVYVLPPAQEELSRNKVSVTCLIKSFHPPDIAVEWEITGQPEPENNYRTTPPQLDSDGTYFVYSKLSVDRSHWQRGNTYTCSVMHEALHSHHTQKSLTQSPGK

>  <u>
nM

>  <Kd>
4.65

$$$$
>  <binder>
feline IgG1a Fc mutant S428M, S434W (antibody, part only; not given: Variable domains, not shown: another chain or arm of the molecule; small tags and cut ends) constant: ASTTAPSVFPLAPSCGTTSGATVALACLVLGYFPEPVTVSWNSGALTSGVHTFPAVLQASGLYSLSSMVTVPSSRWLSDTFTCNVAHPPSNTKVDKTVRKTDHPPGPKPCDCPKCPPPEMLGGPSIFIFPPKPKDTLSISRTPEVTCLVVDLGPDDSDVQITWFVDNTQVYTAKTSPREEQFNSTYRVVSVLPILHQDWLKGKEFKCKVNSKSLPSPIERTISKAKGQPHEPQVYVLPPAQEELSRNKVSVTCLIKSFHPPDIAVEWEITGQPEPENNYRTTPPQLDSDGTYFVYSKLSVDRSHWQRGNTYTCSVMHEALHWHHTQKSLTQSPGK

>  <u>
nM

>  <Kd>
0.937

$$$$
>  <binder>
feline IgG1a Fc mutant S428L, S252F (antibody, part only; not given: Variable domains, not shown: another chain or arm of the molecule; small tags and cut ends) constant: ASTTAPSVFPLAPSCGTTSGATVALACLVLGYFPEPVTVSWNSGALTSGVHTFPAVLQASGLYSLSSMVTVPSSRWLSDTFTCNVAHPPSNTKVDKTVRKTDHPPGPKPCDCPKCPPPEMLGGPSIFIFPPKPKDTLFISRTPEVTCLVVDLGPDDSDVQITWFVDNTQVYTAKTSPREEQFNSTYRVVSVLPILHQDWLKGKEFKCKVNSKSLPSPIERTISKAKGQPHEPQVYVLPPAQEELSRNKVSVTCLIKSFHPPDIAVEWEITGQPEPENNYRTTPPQLDSDGTYFVYSKLSVDRSHWQRGNTYTCSVLHEALHSHHTQKSLTQSPGK

>  <u>
nM

>  <Kd>
6.52

$$$$
